Source of measurements: patent US20230357429A1

System under test: T1, Human TROP2 ECD (31-274 AA), biotinylated (human, UniProt P09758 31-274, biotinylated (site not stated))
T1 construct: also called tumor-associated calcium signal transducer 2; Human TROP2-biotin
T1 sequence: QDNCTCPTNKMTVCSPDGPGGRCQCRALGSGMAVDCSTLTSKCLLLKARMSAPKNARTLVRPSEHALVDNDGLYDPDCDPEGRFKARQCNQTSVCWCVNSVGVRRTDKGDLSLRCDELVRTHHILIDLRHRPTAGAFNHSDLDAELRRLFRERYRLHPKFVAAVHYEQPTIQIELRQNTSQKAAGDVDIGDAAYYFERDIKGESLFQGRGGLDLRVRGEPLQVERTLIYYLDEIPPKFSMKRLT
Experiment description: ELISA, biotinylated TROP2 ECD on neutravidin plate, Fab titrated
Provide the recorded pEC50 for the entries that follow.
Numbers only, as −log10 of the molar value.

TBD-3 (anti-TROP2 Fab, LC Q90A) (Fab, V domains shown) VH: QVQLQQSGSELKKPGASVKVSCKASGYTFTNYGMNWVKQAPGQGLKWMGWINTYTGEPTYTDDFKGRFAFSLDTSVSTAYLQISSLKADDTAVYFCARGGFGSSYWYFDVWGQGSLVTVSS VL: DIQLTQSPSSLSASVGDRVSITCKASQDVSIAVAWYQQKPGKAPKLLIYSASYRYTGVPDRFSGSGSGTDFTLTISSLQPEDFAVYYCQAHYITPLTFGAGTKVEIKR = 9.52
TBD-9 (anti-TROP2 Fab, LC L96A) (Fab, V domains shown) VH: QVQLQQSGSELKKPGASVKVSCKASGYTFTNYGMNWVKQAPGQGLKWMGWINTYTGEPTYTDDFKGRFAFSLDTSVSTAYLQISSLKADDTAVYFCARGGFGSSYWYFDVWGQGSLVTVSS VL: DIQLTQSPSSLSASVGDRVSITCKASQDVSIAVAWYQQKPGKAPKLLIYSASYRYTGVPDRFSGSGSGTDFTLTISSLQPEDFAVYYCQQHYITPATFGAGTKVEIKR = 7.77
TBD-10 (anti-TROP2 Fab, LC T97A) (Fab, V domains shown) VH: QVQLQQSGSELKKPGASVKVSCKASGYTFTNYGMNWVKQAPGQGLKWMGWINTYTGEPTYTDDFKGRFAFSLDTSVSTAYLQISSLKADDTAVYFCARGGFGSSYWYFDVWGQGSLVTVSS VL: DIQLTQSPSSLSASVGDRVSITCKASQDVSIAVAWYQQKPGKAPKLLIYSASYRYTGVPDRFSGSGSGTDFTLTISSLQPEDFAVYYCQQHYITPLAFGAGTKVEIKR = 9.52
TBD-7 (anti-TROP2 Fab, LC T94A) (Fab, V domains shown) VH: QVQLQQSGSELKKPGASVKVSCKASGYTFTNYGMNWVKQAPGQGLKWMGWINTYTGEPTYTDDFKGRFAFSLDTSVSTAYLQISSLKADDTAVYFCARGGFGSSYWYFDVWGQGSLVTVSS VL: DIQLTQSPSSLSASVGDRVSITCKASQDVSIAVAWYQQKPGKAPKLLIYSASYRYTGVPDRFSGSGSGTDFTLTISSLQPEDFAVYYCQQHYIAPLTFGAGTKVEIKR = 9.70
TBD-8 (anti-TROP2 Fab, LC P95A) (Fab, V domains shown) VH: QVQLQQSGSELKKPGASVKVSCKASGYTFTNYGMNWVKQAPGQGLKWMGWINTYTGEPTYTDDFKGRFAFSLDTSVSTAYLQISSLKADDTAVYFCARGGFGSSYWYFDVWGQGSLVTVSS VL: DIQLTQSPSSLSASVGDRVSITCKASQDVSIAVAWYQQKPGKAPKLLIYSASYRYTGVPDRFSGSGSGTDFTLTISSLQPEDFAVYYCQQHYITALTFGAGTKVEIKR = 9.70

Hey, quick one: what's pEC50 for each of these?
1. TBD-2 (anti-TROP2 Fab, LC Q89A) (Fab, V domains shown) VH: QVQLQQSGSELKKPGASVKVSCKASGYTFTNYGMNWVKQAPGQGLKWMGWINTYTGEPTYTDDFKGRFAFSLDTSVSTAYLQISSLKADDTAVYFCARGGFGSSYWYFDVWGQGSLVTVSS VL: DIQLTQSPSSLSASVGDRVSITCKASQDVSIAVAWYQQKPGKAPKLLIYSASYRYTGVPDRFSGSGSGTDFTLTISSLQPEDFAVYYCAQHYITPLTFGAGTKVEIKR
2. TBD-6 (anti-TROP2 Fab, LC I93A) (Fab, V domains shown, also called TBD-6 (LC I93A mutant)) VH: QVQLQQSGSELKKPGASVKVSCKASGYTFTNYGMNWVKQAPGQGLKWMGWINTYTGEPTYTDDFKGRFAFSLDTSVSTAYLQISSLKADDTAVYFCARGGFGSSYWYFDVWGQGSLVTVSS VL: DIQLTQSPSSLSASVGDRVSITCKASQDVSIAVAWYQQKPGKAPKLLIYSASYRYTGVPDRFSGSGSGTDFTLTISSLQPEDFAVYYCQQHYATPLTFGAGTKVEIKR

Ans.
8.33
9.52
